Listed here: items and their measured inhibition at 30 µM.
Biological target: Human Cav2.2 channels (Homo sapiens, UniProt Q00975)
Construct: expressed in transfected cells
Sequence (Q00975 whole entry): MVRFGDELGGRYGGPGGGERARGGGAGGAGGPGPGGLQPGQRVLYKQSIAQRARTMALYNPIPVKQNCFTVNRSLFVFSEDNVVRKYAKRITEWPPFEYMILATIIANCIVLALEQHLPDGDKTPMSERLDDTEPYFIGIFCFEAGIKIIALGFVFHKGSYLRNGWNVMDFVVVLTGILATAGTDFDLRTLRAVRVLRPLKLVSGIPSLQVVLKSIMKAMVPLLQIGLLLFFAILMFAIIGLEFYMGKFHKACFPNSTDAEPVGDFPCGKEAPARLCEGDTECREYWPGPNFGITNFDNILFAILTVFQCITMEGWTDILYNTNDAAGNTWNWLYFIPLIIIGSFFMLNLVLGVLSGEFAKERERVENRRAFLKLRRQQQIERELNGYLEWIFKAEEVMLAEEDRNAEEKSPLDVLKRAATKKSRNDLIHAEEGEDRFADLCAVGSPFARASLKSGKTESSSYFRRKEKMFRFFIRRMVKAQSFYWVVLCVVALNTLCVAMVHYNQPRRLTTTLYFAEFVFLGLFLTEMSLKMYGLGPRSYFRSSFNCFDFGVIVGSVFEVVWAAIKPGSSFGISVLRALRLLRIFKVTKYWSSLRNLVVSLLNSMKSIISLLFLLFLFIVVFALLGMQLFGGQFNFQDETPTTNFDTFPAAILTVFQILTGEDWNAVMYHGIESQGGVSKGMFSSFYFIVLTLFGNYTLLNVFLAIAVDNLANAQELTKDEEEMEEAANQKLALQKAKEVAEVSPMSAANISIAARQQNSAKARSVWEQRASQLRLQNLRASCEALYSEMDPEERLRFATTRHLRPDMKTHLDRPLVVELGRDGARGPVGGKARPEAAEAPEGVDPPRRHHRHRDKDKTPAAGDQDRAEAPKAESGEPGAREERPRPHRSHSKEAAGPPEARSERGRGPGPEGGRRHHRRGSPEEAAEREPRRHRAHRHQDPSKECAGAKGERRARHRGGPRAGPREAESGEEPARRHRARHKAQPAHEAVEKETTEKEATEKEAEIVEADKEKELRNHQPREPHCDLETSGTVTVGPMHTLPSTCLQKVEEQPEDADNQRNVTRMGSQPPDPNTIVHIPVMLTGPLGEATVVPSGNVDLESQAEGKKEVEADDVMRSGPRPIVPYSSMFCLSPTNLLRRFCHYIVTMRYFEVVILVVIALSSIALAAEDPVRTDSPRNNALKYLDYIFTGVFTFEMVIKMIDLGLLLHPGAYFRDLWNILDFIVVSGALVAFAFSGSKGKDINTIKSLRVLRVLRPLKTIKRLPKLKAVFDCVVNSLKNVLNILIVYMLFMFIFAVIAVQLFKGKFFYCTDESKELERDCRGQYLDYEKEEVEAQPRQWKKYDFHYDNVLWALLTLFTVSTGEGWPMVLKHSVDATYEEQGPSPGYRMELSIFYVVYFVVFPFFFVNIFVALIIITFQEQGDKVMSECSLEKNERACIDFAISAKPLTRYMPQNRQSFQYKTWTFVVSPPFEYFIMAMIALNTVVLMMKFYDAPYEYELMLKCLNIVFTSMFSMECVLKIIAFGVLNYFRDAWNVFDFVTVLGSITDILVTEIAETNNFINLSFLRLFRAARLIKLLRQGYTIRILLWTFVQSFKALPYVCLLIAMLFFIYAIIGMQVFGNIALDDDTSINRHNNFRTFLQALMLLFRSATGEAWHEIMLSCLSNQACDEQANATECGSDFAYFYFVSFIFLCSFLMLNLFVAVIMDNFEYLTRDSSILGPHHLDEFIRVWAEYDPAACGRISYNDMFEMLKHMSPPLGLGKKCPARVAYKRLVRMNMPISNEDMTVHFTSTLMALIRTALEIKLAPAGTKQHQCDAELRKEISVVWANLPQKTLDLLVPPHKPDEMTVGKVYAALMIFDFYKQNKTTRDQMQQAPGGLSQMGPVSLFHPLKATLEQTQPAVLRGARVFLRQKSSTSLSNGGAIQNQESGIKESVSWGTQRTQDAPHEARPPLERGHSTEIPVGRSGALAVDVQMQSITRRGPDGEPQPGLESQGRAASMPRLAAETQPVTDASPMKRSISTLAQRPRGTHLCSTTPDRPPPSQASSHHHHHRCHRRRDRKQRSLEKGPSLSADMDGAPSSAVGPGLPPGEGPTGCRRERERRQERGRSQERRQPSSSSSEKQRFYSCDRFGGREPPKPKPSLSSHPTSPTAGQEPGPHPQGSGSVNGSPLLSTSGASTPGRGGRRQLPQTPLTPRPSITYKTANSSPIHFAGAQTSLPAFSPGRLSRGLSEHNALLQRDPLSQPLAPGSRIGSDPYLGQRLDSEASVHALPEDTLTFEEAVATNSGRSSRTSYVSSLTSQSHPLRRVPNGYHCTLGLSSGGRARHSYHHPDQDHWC
Sequence (P54289 25-1103 partner): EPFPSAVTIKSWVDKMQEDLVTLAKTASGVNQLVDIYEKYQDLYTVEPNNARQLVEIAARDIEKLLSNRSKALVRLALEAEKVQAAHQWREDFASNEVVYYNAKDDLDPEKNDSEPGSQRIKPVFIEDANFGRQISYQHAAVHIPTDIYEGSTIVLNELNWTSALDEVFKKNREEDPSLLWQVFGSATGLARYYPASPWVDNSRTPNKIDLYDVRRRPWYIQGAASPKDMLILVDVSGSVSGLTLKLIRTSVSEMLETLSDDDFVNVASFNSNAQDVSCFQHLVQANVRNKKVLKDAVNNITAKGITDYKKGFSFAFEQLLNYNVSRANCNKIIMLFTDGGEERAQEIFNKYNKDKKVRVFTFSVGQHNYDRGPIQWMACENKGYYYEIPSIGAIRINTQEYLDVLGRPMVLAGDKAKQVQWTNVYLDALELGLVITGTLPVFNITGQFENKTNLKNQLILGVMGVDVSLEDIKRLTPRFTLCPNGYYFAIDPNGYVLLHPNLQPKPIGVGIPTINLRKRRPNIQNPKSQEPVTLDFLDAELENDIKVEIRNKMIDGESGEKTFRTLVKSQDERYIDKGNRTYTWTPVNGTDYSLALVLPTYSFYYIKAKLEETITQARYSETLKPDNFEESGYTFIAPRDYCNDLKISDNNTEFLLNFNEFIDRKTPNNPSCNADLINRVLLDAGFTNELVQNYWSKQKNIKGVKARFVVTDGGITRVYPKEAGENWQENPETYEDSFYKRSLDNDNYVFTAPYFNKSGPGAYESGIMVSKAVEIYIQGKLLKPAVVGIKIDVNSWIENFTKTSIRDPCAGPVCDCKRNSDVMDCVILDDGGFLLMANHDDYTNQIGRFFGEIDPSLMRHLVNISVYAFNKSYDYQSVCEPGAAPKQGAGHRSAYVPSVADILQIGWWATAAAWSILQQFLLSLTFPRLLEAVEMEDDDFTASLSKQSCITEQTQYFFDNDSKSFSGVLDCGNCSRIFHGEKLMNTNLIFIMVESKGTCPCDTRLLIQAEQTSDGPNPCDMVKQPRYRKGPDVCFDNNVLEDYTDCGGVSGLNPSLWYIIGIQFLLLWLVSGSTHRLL
Sequence (P54284 whole entry partner): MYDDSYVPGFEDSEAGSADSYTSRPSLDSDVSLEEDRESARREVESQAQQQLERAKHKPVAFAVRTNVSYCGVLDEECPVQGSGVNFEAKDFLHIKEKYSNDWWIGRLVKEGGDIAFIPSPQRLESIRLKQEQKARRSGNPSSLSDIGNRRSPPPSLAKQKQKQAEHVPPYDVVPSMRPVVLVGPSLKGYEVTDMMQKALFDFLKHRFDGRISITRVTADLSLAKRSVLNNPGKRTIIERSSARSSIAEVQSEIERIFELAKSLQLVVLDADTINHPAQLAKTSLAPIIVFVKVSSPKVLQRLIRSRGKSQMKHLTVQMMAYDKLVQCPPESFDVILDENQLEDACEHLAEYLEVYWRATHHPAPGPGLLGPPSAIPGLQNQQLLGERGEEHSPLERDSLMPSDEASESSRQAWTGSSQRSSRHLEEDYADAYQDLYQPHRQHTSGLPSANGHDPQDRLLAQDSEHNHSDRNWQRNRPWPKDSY
Assay: Fluorescent assay for Cav2.2 channels using potassium depolarization to initiate channel opening
Type: cell-based
Details: 30 μM compound; read-out: Cav 2.2 Activity % Inh at 30 μM
Give the number; % is assumed, so skip it.

Solved entries:
structure.as.smiles: CN(C)c1ccc(CNC(=O)C2(NC(=O)c3cc(C(C)(C)C)cc(C(C)(C)C)c3)CCCCC2)cc1
unit: %
inhibition at 30 µM: 90.3

structure.as.smiles: COc1c(C(C)(C)C)cc(C(=O)NC2(C(=O)N3CCN(c4ccccc4)CC3)CCCCC2)cc1C(C)(C)C
unit: %
inhibition at 30 µM: 101

structure.as.smiles: CC(C)(C)c1cc(CNC2(C(=O)NCc3ccccc3)CCCCC2)cc(C(C)(C)C)c1
unit: %
inhibition at 30 µM: 101

structure.as.smiles: CC(C)(C)c1cc(C(=O)NC2(C(=O)NCc3ccc(Cl)cc3)CCCCC2)cc(C(C)(C)C)c1
unit: %
inhibition at 30 µM: 97.9

structure.as.smiles: Cc1cnc(CNC(=O)C2(NC(=O)c3cc(C(C)(C)C)nc(C(C)(C)C)c3)CCCCC2)cn1
unit: %
inhibition at 30 µM: 93.3

Problem: What inhibition at 30 µM appears in the records for this compound with Human Cav2.2 channels (Homo sapiens, UniProt Q00975)? CC(C)(C)c1cc(C(=O)NC2(C(=O)N3CCOCC3)CCCC2)cc(C(C)(C)C)n1
Result: 87.2

Problem: What inhibition at 30 µM appears in the records for this compound with Human Cav2.2 channels (Homo sapiens, UniProt Q00975)? COc1c(C(C)(C)C)cc(C(=O)NC2(C(=O)NCc3nccs3)CCCCC2)cc1C(C)(C)C
Result: 104
